Origin of measurements: the METLIN SMRT retention time set (Domingo-Almenara et al. 2019)

assay: gradient 5% acetonitrile 3 min, to 50% in 2 min, to 85% in 15 min, held 3 min, 100 µL/min; details: column: Zorbax Extend-C18 2.1 x 50 mm; eluents: water / acetonitrile, 0.1% formic acid
Listed here: items and their measured RP-LC retention time.
Dear colleague, please return just the value in s, with no unit written.

| compound | readout_units | RP-LC retention time |
| --- | --- | --- |
| CCc1nc(N2CCC(C(=O)NCc3ccc(OC)cc3OC)CC2)c2c(C)scc2n1 | s | 706 |
| Cc1oc(-c2[nH]ncc2C(=O)N(C)C)cc1S(=O)(=O)NCc1ccccc1Cl | s | 693 |
| COc1cccc(CNC(=O)C2(C)CCCN(C(=O)Nc3ccc(OC)c(OC)c3)C2)c1 (centres undefined) | s | 746 |
| Cc1c(C(=O)O)sc2nc(SCC(=O)Nc3ccccc3C(F)(F)F)[nH]c(=O)c12 | s | 669 |
| Cc1ccc(C2Cn3nnc(-c4nc(-c5ccsc5)no4)c3CO2)c(C)c1 (centres undefined) | s | 1220 |

Consider the compound shown here: CCCN(CC1CC1)C(=O)c1nn(CCOC)c2c1CNCC2 What is its recorded RP-LC retention time? 567

Form field: reported RP-LC retention time of Fc1ccc(Cl)cc1-c1nc(Nc2ccncc2)c2nccnc2n1 648

// query RP-LC retention time value for entry COc1ccc(-c2nnc(-c3ccc(Cl)c(S(=O)(=O)N4CCCCC4)c3)o2)cc1OC 1070

Field request: RP-LC retention time | item: CC1CCN(c2cc(-n3cnc(C(=O)N4CCC(N5CCCCC5)CC4)c3)ncn2)CC1 662

# lookup: RP-LC retention time of Cc1ccc(-c2nnc(N3CCC(C(=O)NCc4ccc(C)o4)CC3)o2)cc1 853

Field request: RP-LC retention time | item: COc1ccc(CC(=O)N(C)C2CCN(c3nccnc3OC)C2)cc1 (centres undefined) 684

For the compound Cc1nn(CC(=O)NCCCN2CCCC2=O)c(=O)c2nc(-c3ccccc3)sc12 , what RP-LC retention time is on record? 668

Quick one: RP-LC retention time for O=C(Nc1cccc(OC(F)(F)F)c1)C1CCCN(c2nnc3ccccn23)C1 (centres undefined) ? 784

Can you look up the measured RP-LC retention time of CCc1cccc(NC(=O)Cn2c(N)nc(COC)cc2=O)c1 for me? 650

---

assay: gradient 5% acetonitrile 3 min, to 50% in 2 min, to 85% in 15 min, held 3 min, 100 µL/min; conditions: column: Zorbax Extend-C18 2.1 x 50 mm; eluents: water / acetonitrile, 0.1% formic acid
quantity_measured: RP-LC retention time (s)
Give a bare numeral; the unit s is implied.

Completed entries (count: 5):
| compound | RP-LC retention time / s |
| --- | --- |
| COc1ccc(N2CCN(C(=O)c3ccc4c(c3)CC(=O)N4C)CC2)cc1 | 801 |
| Cc1ccc(CN2C(=O)C3CCCN3C(=O)c3ccccc32)cc1 (stereo unspecified) | 797 |
| O=S(=O)(c1cccnc1)N1CC(F)(F)C[C@H]1c1nc(C2CC2)no1 | 815 |
| O=C(CCn1c(N2CCCC2)nc2ccsc2c1=O)NCc1ccc(F)cc1F | 779 |
| Cc1ccc(CN2C(=O)COC[C@H]2C(=O)Nc2ccc3c(c2)OCCO3)cc1 | 780 |

Below: the item to evaluate.
Param item = Cc1ccc(CNC(=O)c2ncn3c2C(=O)N(C2CC2)C(C)(C(=O)NCc2ccc(F)cc2)C3)cc1 (stereo unspecified) ; retrieve measured RP-LC retention time. 799

---

assay: gradient 5% acetonitrile 3 min, to 50% in 2 min, to 85% in 15 min, held 3 min, 100 µL/min; settings: column: Zorbax Extend-C18 2.1 x 50 mm; eluents: water / acetonitrile, 0.1% formic acid
// NB: equality with 900 s counts as label 0; only RP-LC retention time strictly below is label 1

| compound | label |
| --- | --- |
| C=CCN(Cc1nc(-c2ccc(C)cc2)no1)C(=O)Nc1cccc(C)c1 | label 0 |
| Cc1ccc(C)c(N2CCN(c3ccnc(SCC(=O)Nc4c(C)cccc4C)n3)CC2)c1 | label 0 |
| Cc1ncoc1C(=O)N1CCC(N2CC(OCC3CC3)C23CCOCC3)CC1 (centres undefined) | label 1 |

In the record for CNCCC(Oc1ccccc1C)c1ccccc1 (centres undefined) , is RP-LC retention time less than 900 s? label 1

Consider COc1ccc(Cl)cc1S(=O)(=O)N1CCC(C(=O)NCCC2=CCCCC2)CC1 . Does its RP-LC retention time lie strictly below 900 s? label 0

Threshold test, RP-LC retention time < 900 s: Cc1nnc2ccc(S(=O)(=O)Nc3ccc4c(c3)OCO4)cn12 label 1

Quick check: RP-LC retention time of CCC(CO)NCc1ccc(-c2cc(Cl)ccc2Cl)o1 (centres undefined) under 900 s? label 1

---

test: gradient 5% acetonitrile 3 min, to 50% in 2 min, to 85% in 15 min, held 3 min, 100 µL/min; conditions: column: Zorbax Extend-C18 2.1 x 50 mm; eluents: water / acetonitrile, 0.1% formic acid
Documented RP-LC retention time across a set of compounds
Report only the number, with the unit s understood.

Some compounds with recorded RP-LC retention time:
| compound | RP-LC retention time [s] |
| --- | --- |
| Cc1ccc(C2=NC3(CCN(C(=O)c4ccc5[nH]ccc5c4)CC3)ON2)cc1 | 790 |
| CCn1cc(C(=O)Nc2cccc(C)c2)c(S(=O)(=O)N2CCSCC2)n1 | 902 |

Quick check: RP-LC retention time of COCCc1noc([C@@H]2CC(F)(F)CN2C(=O)c2ccco2)n1 ? 716

I am curious: what RP-LC retention time value has been reported for CCc1cccc(C)c1Nc1c(-c2ccc(Cl)cc2)nc2nc(C)cc(C)n12 ? 985

So what does the record say about RP-LC retention time for COc1ccc(N2CCN(c3ncc(S(=O)(=O)c4ccccc4)c(N)n3)CC2)cc1 ? 848

Reported RP-LC retention time, compound COc1ccccc1C(=O)N1CCN(c2cnn3c(C)nnc3c2)CC1 : ____ 601

Could you share which RP-LC retention time value was measured for O=C(Nc1nc2c(s1)CCc1ccccc1-2)c1cccc(F)c1 ? 1120

---

assay: gradient 5% acetonitrile 3 min, to 50% in 2 min, to 85% in 15 min, held 3 min, 100 µL/min; details: column: Zorbax Extend-C18 2.1 x 50 mm; eluents: water / acetonitrile, 0.1% formic acid
quantity_measured: RP-LC retention time (s)
All answers are understood in s, so give the number only.

Record excerpt, results attached:
| molecule | readout_units | RP-LC retention time |
| --- | --- | --- |
| C=CCNC(=O)C1CCCN(C(=O)Nc2ccc(NC(=O)Nc3ccccc3)cc2)C1 (configuration not stated) | s | 707 |
| CCCS(=O)(=O)c1nc2ccc(NS(=O)(=O)c3ccccc3)cc2s1 | s | 879 |
| Cn1c(=O)n(C)c2cc(CNc3ccc(C(=O)O)cc3)ccc21 | s | 687 |
| Cc1cc(C)n(CCNC(=O)c2ccsc2)n1 | s | 593 |
| CCOc1ccc(-c2csc(Cc3nc(-c4ccc(OCC)cc4)no3)n2)cc1 | s | 1300 |
| COc1ccc(-c2noc(C3CCCN3C(=O)c3cc(F)cc(F)c3)n2)cc1 (configuration not stated) | s | 1020 |

What does the record list as RP-LC retention time for Cc1cc(C)cc(NC(=O)C2CCCN(c3nc4ccsc4c(=O)n3Cc3ccc(F)cc3)C2)c1 (configuration not stated) ? 1090

Which RP-LC retention time reading was recorded for the molecule Cc1cccc(-c2nc(Cc3noc(CNC(=O)c4ccccc4)n3)c(C)o2)c1 ? 924

---

test: gradient 5% acetonitrile 3 min, to 50% in 2 min, to 85% in 15 min, held 3 min, 100 µL/min; details: column: Zorbax Extend-C18 2.1 x 50 mm; eluents: water / acetonitrile, 0.1% formic acid
Recorded RP-LC retention time, one value per entry.
Express your answer in s, writing the number without its unit.

| smiles_code | readout_units | RP-LC retention time |
| --- | --- | --- |
| c1ccc(OCc2nc(-c3ccc4c(c3)nnn4CCN3CCCCC3)no2)cc1 | s | 698 |
| CCN(CC)c1nc(-c2cccc(C)c2)nnc1C | s | 719 |

Quick one: RP-LC retention time for CCC(=O)Nc1c(C)noc1/C=C\c1ccc(S(=O)(=O)Nc2ccc(S(N)(=O)=O)cc2)cc1 ? 695

---

experiment: gradient 5% acetonitrile 3 min, to 50% in 2 min, to 85% in 15 min, held 3 min, 100 µL/min; conditions: column: Zorbax Extend-C18 2.1 x 50 mm; eluents: water / acetonitrile, 0.1% formic acid
Parameter: RP-LC retention time. Scope: all listed entries.
Respond numerically; units are s and should not be typed.

| molecule | RP-LC retention time (s) |
| --- | --- |
| O=C(Nc1ccc(Cl)cc1)N1CCCC1c1nc(-c2ccc(F)cc2F)no1 (configuration not stated) | 1040 |

What value of RP-LC retention time has been reported for the following molecule? O=C(CN1CCN(C(=O)c2cc3cn(C4CCCC4)cc3s2)CC1)N1CCCC1 1150

So what's the measured RP-LC retention time for this one? Cc1ccc(OCC(=O)N2CCN(c3nc(CN4CCOCC4)cs3)CC2)cc1 640

For COc1cc(NC(=O)NCC(c2cccn2C)N2CCOCC2)cc(OC)c1 (configuration not stated) , what is its reported RP-LC retention time? 563

Reported RP-LC retention time for C[C@@H](NC(=O)c1ccc(Cl)cc1)C(=O)NCc1cscn1 : what is it? 673

Using the record for O=c1c2cc(-c3ccc4c(c3)OCO4)nn2ccn1Cc1nc(-c2cccc(C(F)(F)F)c2)no1 , report its RP-LC retention time. 1110

What value of RP-LC retention time has been reported for the following molecule? CCc1nn2c(CNS(=O)(=O)c3ccc(F)c(F)c3)c(-c3ccccc3)nc2s1 982

So what does the record say about RP-LC retention time for CCc1cccc(NC(=O)c2csc(-c3cn(C)c4ncccc34)n2)c1 ? 1120

Form field: reported RP-LC retention time of CC1CN(C(=O)CCC(=O)N2CCN(c3ccccn3)CC2)c2ccccc2O1 (configuration not stated) 623

Returns the measured RP-LC retention time for the input molecule. Input: O=C(NCCc1cccs1)C1CN(S(=O)(=O)C2CC2)CC12CCCCC2 (configuration not stated) 934

State the recorded RP-LC retention time for this entry: C#CCOCC1CCCN(S(=O)(=O)c2cc(C)c(Cl)cc2Cl)C1 (configuration not stated) 1130

Suppose we examine the molecule COC(=O)CNC(c1ccccc1)c1cc(C)ccc1NS(=O)(=O)c1ccc(C)cc1 (configuration not stated) ; what RP-LC retention time value has been reported? 904
